- Test system: CD34^+CD38^− cells
- method description: Expansion of CD34+CD38− cells from human cord blood-derived CD34+ cells (Example 2)
- Assay type: cell-based
- assay context: Homo sapiens, 168 h, 1 μg/mL compound, 50 ng/mL SCF, StemSpan SFEM, 7 days; based on number of CD34+CD38− cells in the absence of compound; read-out: Expansion efficiency
test readout: fold induction at 1 µg/mL

Worked examples follow.
> print(dat)
                                   molecule       tested.target  reported
1  CCCN(CC)C(=O)c1ccc(C(=O)N/N=C(\C)c2csc(-c3ccc(Cl)c(Cl)c3)c2O)s1 [compound 85]  CD34^+CD38^− cells    3 to 5
2  C/C(=N\NC(=O)c1ccc(C(=O)NCc2ccccc2C(N)=O)s1)c1csc(-c2ccc(Br)cc2)c1O [compound 101]  CD34^+CD38^− cells      ≥ 10

The reported fold induction at 1 µg/mL of the molecule C/C(=N\NC(=O)c1ccc(C(=O)NCCN2CCOCC2)s1)c1csc(-c2ccc(Cl)c(Cl)c2)c1O [compound 23] was 5 to 10

The reported fold induction at 1 µg/mL of the molecule C/C(=N\NC(=O)c1ccc(C(=O)NCc2ccnn2C)s1)c1csc(-c2ccc(C(F)(F)F)cc2)c1O [compound 45] was 5 to 10

The reported fold induction at 1 µg/mL of the molecule CNC(=O)c1ccc(CNC(=O)c2ccc(C(=O)N/N=C(\C)c3csc(-c4ccc(OC)cc4)c3O)s2)cc1 [compound 112] was ≥ 10

The reported fold induction at 1 µg/mL of the molecule C/C(=N\NC(=O)c1ccc(C(=O)NC(C)c2ccc(C(N)=O)cc2)s1)c1csc(-c2ccc(C(C)(C)C)cc2)c1O (stereo not shown) [compound 114] was ≥ 10

The reported fold induction at 1 µg/mL of the molecule C/C(=N\NC(=O)c1ccc(C(=O)N(C)Cc2ccccn2)s1)c1csc(-c2ccc(Cl)c(Cl)c2)c1O [compound 80] was 3 to 5

The reported fold induction at 1 µg/mL of the molecule C/C(=N\NC(=O)c1ccc(C(=O)NC2CC2)s1)c1csc(-c2ccc(Cl)c(Cl)c2)c1 [compound 21] was ≥ 10

The reported fold induction at 1 µg/mL of the molecule C/C(=N\NC(=O)c1ccc(C(=O)NCc2ccccc2)s1)c1csc(-c2ccc(Cl)c(Cl)c2)c1O [compound 16] was ≥ 10

The reported fold induction at 1 µg/mL of the molecule C/C(=N\NC(=O)c1ccc(C(=O)NC(C)c2ccc(C(N)=O)cc2)s1)c1csc(-c2ccc(Cl)c(Cl)c2)c1O (stereo not shown) [compound 113] was ≥ 10

----------
Entries and their measured fold induction at 1 µg/mL follow.
- Test system: CD34^+CD38^− cells
- method description: Expansion of CD34+CD38− cells from human cord blood-derived CD34+ cells (Example 2)
- Assay type: cell-based
- assay context: Homo sapiens, 168 h, 1 μg/mL compound, 50 ng/mL SCF, StemSpan SFEM, 7 days; based on number of CD34+CD38− cells in the absence of compound; read-out: Expansion efficiency

Worked examples follow.
> print(dat)
                                   molecule  reported
1  COc1ccc(-c2scc(/C(C)=N/NC(=O)c3ccc(C(=O)NCc4ccc(C(N)=O)cc4)s3)c2O)cc1      ≥ 10
2  C/C(=N\NC(=O)c1ccc(C(=O)NCc2ccno2)s1)c1csc(-c2ccc(C(F)(F)F)cc2)c1O   5 to 10
3  C/C(=N\NC(=O)c1ccc(C(=O)NCc2ccncn2)s1)c1csc(-c2ccc(Cl)c(Cl)c2)c1O   5 to 10

The reported fold induction at 1 µg/mL of the molecule C/C(=N\NC(=O)c1ccc(C(=O)NCc2cn(C)cn2)s1)c1csc(-c2ccc(Br)cc2)c1O was ≥ 10

The reported fold induction at 1 µg/mL of the molecule C/C(=N\NC(=O)c1ccc(C(=O)NCc2cnn(C)n2)s1)c1csc(-c2ccc(C(F)(F)F)cc2)c1O was 5 to 10

----------
- Tested on: CD34^+CD38^− cells
- method description: Expansion of CD34+CD38− cells from human cord blood-derived CD34+ cells (Example 2)
- Type: cell-based
- assay context: Homo sapiens, 168 h, 1 μg/mL compound, 50 ng/mL SCF, StemSpan SFEM, 7 days; based on number of CD34+CD38− cells in the absence of compound; read-out: Expansion efficiency
test readout: fold induction at 1 µg/mL

> print(dat)
                                   compound               test.readout  reported
1  C/C(=N\NC(=O)c1ccc(C(=O)NCc2ccc(C(N)=O)cc2)s1)c1csc(-c2ccc(Cl)cc2)c1O [compound 89]  fold induction at 1 µg/mL      ≥ 10
2  C/C(=N\NC(=O)c1ccc(C(=O)NCc2cccc(C(N)=O)c2)s1)c1csc(-c2ccc(Br)cc2)c1O [compound 94]  fold induction at 1 µg/mL      ≥ 10
3  CC(=O)Nc1ccc(C(C)NC(=O)c2ccc(C(=O)N/N=C(\C)c3csc(-c4ccc(OC(F)(F)F)cc4)c3O)s2)cc1 (stereo not shown) [compound 125]  fold induction at 1 µg/mL      ≥ 10
4  CC(=O)Nc1ccc(C(C)NC(=O)c2ccc(C(=O)N/N=C(\C)c3csc(-c4ccc(Br)cc4)c3O)s2)cc1 (stereo not shown) [compound 122]  fold induction at 1 µg/mL      ≥ 10
5  C/C(=N\NC(=O)c1ccc(C(=O)NCCN2CCCC2)s1)c1csc(-c2ccc(Cl)c(Cl)c2)c1O [compound 67]  fold induction at 1 µg/mL    3 to 5

The reported fold induction at 1 µg/mL of the compound C/C(=N\NC(=O)c1ccc(C(=O)NCc2ccnnc2)s1)c1csc(-c2ccc(Cl)c(Cl)c2)c1O [compound 43] was ≥ 10

The reported fold induction at 1 µg/mL of the compound C/C(=N\NC(=O)c1ccc(C(=O)NCc2cnc(C)cn2)s1)c1csc(-c2ccc(Cl)c(Cl)c2)c1O [compound 39] was 5 to 10

The reported fold induction at 1 µg/mL of the compound CC(=O)Nc1ccc(C(C)NC(=O)c2ccc(C(=O)N/N=C(\C)c3csc(-c4ccc(C(F)(F)F)cc4)c3O)s2)cc1 (stereo not shown) [compound 123] was ≥ 10

----------
- Tested on: CD34^+CD38^− cells
- method description: Expansion of CD34+CD38− cells from human cord blood-derived CD34+ cells (Example 2)
- Type: cell-based
- assay context: Homo sapiens, 168 h, 1 μg/mL compound, 50 ng/mL SCF, StemSpan SFEM, 7 days; based on number of CD34+CD38− cells in the absence of compound; read-out: Expansion efficiency
Entries and their measured fold induction at 1 µg/mL follow.

Worked examples follow.
> print(dat)
                                   compound       tested.target  reported
1  CC(=O)Nc1ccc(C(C)NC(=O)c2ccc(C(=O)N/N=C(\C)c3csc(-c4ccc(C(C)(C)C)cc4)c3O)s2)cc1 (centres unmarked)  CD34^+CD38^− cells   5 to 10
2  C/C(=N\NC(=O)c1ccc(C(=O)NCc2cc(C)on2)s1)c1csc(-c2ccc(Cl)c(Cl)c2)c1O  CD34^+CD38^− cells      ≥ 10
3  COc1ccc(-c2scc(/C(C)=N/NC(=O)c3ccc(C(=O)NCc4cn(C)cn4)s3)c2O)cc1  CD34^+CD38^− cells      ≥ 10
4  C/C(=N\NC(=O)c1ccc(C(=O)NCc2ccccc2C(N)=O)s1)c1csc(-c2ccc(C(F)(F)F)cc2)c1O  CD34^+CD38^− cells      ≥ 10

The reported fold induction at 1 µg/mL of the compound C/C(=N\NC(=O)c1ccc(C(=O)NCc2cn(C)cn2)s1)c1csc(-c2ccc(C(F)(F)F)cc2)c1O was 5 to 10

Reference source for all entries: patent US9527828B2
